B1: library; numbered along this chain (parent)
chain: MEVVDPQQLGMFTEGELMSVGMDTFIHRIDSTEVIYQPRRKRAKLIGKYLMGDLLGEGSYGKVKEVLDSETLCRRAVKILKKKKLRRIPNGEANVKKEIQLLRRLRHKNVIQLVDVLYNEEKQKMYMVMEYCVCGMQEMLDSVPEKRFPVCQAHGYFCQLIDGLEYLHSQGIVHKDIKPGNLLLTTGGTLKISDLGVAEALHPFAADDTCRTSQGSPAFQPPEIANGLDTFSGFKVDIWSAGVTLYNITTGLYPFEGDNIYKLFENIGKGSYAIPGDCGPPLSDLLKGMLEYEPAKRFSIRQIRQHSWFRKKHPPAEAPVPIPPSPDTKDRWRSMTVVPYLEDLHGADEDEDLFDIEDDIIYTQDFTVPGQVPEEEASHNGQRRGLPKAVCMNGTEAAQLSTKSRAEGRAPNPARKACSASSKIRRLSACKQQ

Variants of: B1
measurement_notes: STK11 functional score (HeLa growth suppression), rescaled enrichment; synonymous median = 1, nonsense median = 0 (normalised score)
measurement_context: with HeLa; variant type: missense
observable: STK11 functional score
Provide a numeric answer; units are not to be included.

Would you please look over these solved cases?
In [3]: df
Out[3]:
   mutation  observed_result
0     Q159S            0.691
1     L286A            0.163
2     H379T             1.31

Field request: STK11 functional score | item: "P323C"
1.28

Now try "A410N" .
1.32

Now try "Y166M" .
0.651

Now try "R383T" .
1.56

Now try "S142G" .
1.62

Now try "P280M" .
1.04

Now try "E138S" .
1.26

Sourced from the supplement of paper PMC12338614
